target: ERK1 (Homo sapiens, UniProt P27361); test: ADP-Glo kinase assay; assay type: biochemical; conditions: read-out: Enzyme inhibitory activity (500 nM, %) ERK1
Sequence (P27361 whole entry): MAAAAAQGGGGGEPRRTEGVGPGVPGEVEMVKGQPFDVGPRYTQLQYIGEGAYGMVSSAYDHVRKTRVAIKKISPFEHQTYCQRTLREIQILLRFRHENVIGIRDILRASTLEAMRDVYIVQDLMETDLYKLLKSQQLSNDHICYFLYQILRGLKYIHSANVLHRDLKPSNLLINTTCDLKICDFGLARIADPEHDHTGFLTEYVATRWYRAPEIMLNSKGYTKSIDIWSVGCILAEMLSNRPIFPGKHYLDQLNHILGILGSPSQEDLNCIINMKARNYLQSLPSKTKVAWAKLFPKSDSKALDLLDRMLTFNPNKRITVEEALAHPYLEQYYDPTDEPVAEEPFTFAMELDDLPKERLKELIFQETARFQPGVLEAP
Recorded inhibition at 0.5 µM for the following compounds
API: value field is a number in %; no unit string.

Guide cases for inhibition at 0.5 µM, answers given:
Short answer for COc1cc(N2CCN(C)CC2)ccc1NC(=O)c1cc(-c2nc(Nc3ccnn3C)ncc2Cl)cs1 : inhibition at 0.5 µM was 62.5

Short answer for CN(C)Cc1cccc(Nc2ncc(Cl)c(-c3csc(C(=O)NN4CCOCC4)c3)n2)c1 : inhibition at 0.5 µM was 95.6

Short answer for Cc1cc(NC(=O)c2cc(-c3nc(Nc4cccc(CN(C)C)c4)ncc3Cl)cs2)ccn1 [18j] : inhibition at 0.5 µM was 7.98

***
Short answer for CN1CCN(NC(=O)c2cc(-c3nc(Nc4ccnn4C)ncc3Cl)cs2)CC1 : inhibition at 0.5 µM was 95.7

----------
test system: BT549 cells; test: MTT cell viability assay; type: cell-based; details: Homo sapiens, BT-549, 72 h
Reported Endpoint: pIC50
# pIC50: negative log10 of molar concentration; output just the value

Short answer for CN(C)Cc1cccc(Nc2ncc(Cl)c(-c3csc(C(=O)NN4CCOCC4)c3)n2)c1 [SKLB-D18] : pIC50 was 5.49

----------
experiment: Plasma protein binding rate (ultrafiltration); assay type: in vitro ADME; conditions: SD rat plasma
Reported Endpoint: fraction unbound

Short answer for CN(C)Cc1cccc(Nc2ncc(Cl)c(-c3csc(C(=O)NN4CCOCC4)c3)n2)c1 : fraction unbound was 0.816

----------
test: Caco-2 bidirectional transport; assay type: in vitro ADME; conditions: human; Caco-2, 120 min; read-out: BL→AP Papp
Reported Endpoint: Papp B→A at 120 min
I'd appreciate it if you included the unit after the number.

Short answer for CN(C)Cc1cccc(Nc2ncc(Cl)c(-c3csc(C(=O)NN4CCOCC4)c3)n2)c1 [SKLB-D18] : Papp B→A at 120 min was 0.305 ×10⁻⁶ cm/s

----------
biological target: ERK2 (Homo sapiens, UniProt P28482)
Sequence (P28482 whole entry): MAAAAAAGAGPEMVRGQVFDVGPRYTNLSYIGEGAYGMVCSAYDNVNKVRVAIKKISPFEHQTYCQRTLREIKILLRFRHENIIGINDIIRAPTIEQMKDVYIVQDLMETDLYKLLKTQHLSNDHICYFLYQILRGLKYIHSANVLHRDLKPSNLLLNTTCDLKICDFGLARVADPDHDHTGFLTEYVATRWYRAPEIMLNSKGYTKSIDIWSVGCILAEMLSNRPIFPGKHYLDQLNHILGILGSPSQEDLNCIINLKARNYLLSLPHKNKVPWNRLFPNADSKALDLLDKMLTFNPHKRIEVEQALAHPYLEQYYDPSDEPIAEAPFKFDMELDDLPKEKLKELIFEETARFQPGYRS
Reported Endpoint: pIC50
# pIC50: negative log10 of molar concentration; output just the value

Item: CN(C)Cc1cccc(Nc2ncc(Cl)c(-c3csc(C(=O)NN4CCOCC4)c3)n2)c1 | System: ERK2 (Homo sapiens, UniProt P28482) | pIC50: 7.40

----------
molecular target: ERK5 (Homo sapiens, UniProt Q13164); test: ADP-Glo kinase assay; assay type: biochemical; conditions: read-out: Enzyme inhibitory activity (500 nM, %) ERK5
Sequence (Q13164 whole entry): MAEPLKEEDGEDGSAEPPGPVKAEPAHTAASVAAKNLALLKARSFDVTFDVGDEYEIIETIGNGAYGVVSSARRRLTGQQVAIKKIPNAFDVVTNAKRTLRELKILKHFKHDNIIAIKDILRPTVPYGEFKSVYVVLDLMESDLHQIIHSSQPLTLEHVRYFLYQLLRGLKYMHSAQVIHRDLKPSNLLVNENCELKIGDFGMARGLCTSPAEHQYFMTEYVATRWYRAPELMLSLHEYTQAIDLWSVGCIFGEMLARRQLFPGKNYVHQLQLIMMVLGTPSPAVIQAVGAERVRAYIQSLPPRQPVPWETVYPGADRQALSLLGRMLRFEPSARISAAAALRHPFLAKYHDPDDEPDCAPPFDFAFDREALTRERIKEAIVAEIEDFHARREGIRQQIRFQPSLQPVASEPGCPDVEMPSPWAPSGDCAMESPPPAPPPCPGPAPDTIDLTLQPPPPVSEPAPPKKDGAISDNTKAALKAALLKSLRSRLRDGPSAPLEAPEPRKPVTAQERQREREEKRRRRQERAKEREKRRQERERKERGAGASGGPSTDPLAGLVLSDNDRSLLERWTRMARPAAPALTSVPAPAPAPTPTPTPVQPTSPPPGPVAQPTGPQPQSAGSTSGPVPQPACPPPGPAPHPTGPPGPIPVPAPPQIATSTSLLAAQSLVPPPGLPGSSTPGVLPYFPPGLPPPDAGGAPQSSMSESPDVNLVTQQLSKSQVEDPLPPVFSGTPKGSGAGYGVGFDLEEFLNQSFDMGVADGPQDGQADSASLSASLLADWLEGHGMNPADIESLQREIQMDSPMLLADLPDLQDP
Recorded inhibition at 0.5 µM for the following compounds
API: value field is a number in %; no unit string.

Short answer for CN1CCN(NC(=O)c2cc(-c3nc(Nc4ccnn4C)ncc3Cl)cs2)CC1 [6a] : inhibition at 0.5 µM was 63.8

Short answer for COc1cc(N2CCN(C)CC2)ccc1NC(=O)c1cc(-c2nc(Nc3ccnn3C)ncc2Cl)cs1 [H1] : inhibition at 0.5 µM was 59.5

Short answer for Cc1cc(NC(=O)c2cc(-c3nc(Nc4cccc(CN(C)C)c4)ncc3Cl)cs2)ccn1 [18j] : inhibition at 0.5 µM was 81.8

Shift focus to the following entry.
Short answer for CN(C)Cc1cccc(Nc2ncc(Cl)c(-c3csc(C(=O)NN4CCOCC4)c3)n2)c1 [SKLB-D18] : inhibition at 0.5 µM was 93.1
